- Experiment notes: Plasma concentrations during 24-hour continuous intravenous infusion
- Format: in vivo, Sprague-Dawley rats
- Assay conditions: female, Sprague-Dawley, rat, plasma, iv, 10 mg/kg, female Sprague-Dawley rats; 24-hour intravenous infusion at 10 mg/kg; time 6 h; read-out: Plasma concentration, Mean
Measure name: concentration at 6 h (ng/mL)
Please reply with the bare figure in ng/mL and do not write the unit itself.

Data point: O=C(O)c1cc(-c2ccc(C3CCNCC3)cc2)c2ccc(-c3ccc(C(F)(F)F)cc3)cc2c1 ; concentration at 6 h = 569

###

- Experiment notes: Plasma concentrations during 24-hour continuous intravenous infusion
- Type: in vivo, Sprague-Dawley rats
- Assay conditions: male, Sprague-Dawley, rat, plasma, iv, 30 mg/kg, male Sprague-Dawley rats; 24-hour intravenous infusion at 30 mg/kg; time 6 h; read-out: Plasma concentration, individual animal
Measure name: concentration at 6 h
Answer format: number, then unit.

Lab book: concentration at 6 h of O=C(O)c1cc(-c2ccc(C3CCNCC3)cc2)c2ccc(-c3ccc(C(F)(F)F)cc3)cc2c1 noted as 1170 ng/mL

###

- Experiment notes: Plasma concentrations and TK parameters, 72-hour continuous intravenous infusion
- Type: in vivo, Sprague-Dawley rats
- Assay conditions: Sprague-Dawley, rat, plasma; Male; Group 15, 30 mg/kg/day; 72 hours of intravenous infusion
Measure name: half-life (h)
// units = h; emit number, no label

Per the records, this compound ( O=C(O)c1cc(-c2ccc(C3CCNCC3)cc2)c2ccc(-c3ccc(C(F)(F)F)cc3)cc2c1 [KB-1801] ) has half-life equal to 8.29

###

- Experiment notes: Plasma concentrations and TK parameters, 72-hour continuous intravenous infusion
- Format: in vivo, Sprague-Dawley rats
- Assay conditions: male, Sprague-Dawley, rat, plasma, iv, 10 mg/kg/day, male Sprague-Dawley rats; 72-hour intravenous infusion at 10 mg/kg/day; time 78 h; read-out: Plasma concentration, Mean
Measure name: concentration at 78 h (ng/mL)
Field: numeric (ng/mL). Do not append units.

// recorded concentration at 78 h for O=C(O)c1cc(-c2ccc(C3CCNCC3)cc2)c2ccc(-c3ccc(C(F)(F)F)cc3)cc2c1 : 208

###

- Experiment notes: Plasma concentrations and TK parameters, 72-hour continuous intravenous infusion
- Type: in vivo, Sprague-Dawley rats
- Assay conditions: female, Sprague-Dawley, rat, plasma, iv, 100 mg/kg/day, female Sprague-Dawley rats; 72-hour intravenous infusion at 100 mg/kg/day; time 84 h; read-out: Plasma concentration, individual animal
Measure name: concentration at 84 h

O=C(O)c1cc(-c2ccc(C3CCNCC3)cc2)c2ccc(-c3ccc(C(F)(F)F)cc3)cc2c1 yielded concentration at 84 h of 841 ng/mL

###

- Experiment notes: Plasma concentrations during 24-hour continuous intravenous infusion
- Assay type: in vivo, Sprague-Dawley rats
- Assay conditions: female, Sprague-Dawley, rat, plasma, iv, 30 mg/kg, female Sprague-Dawley rats; 24-hour intravenous infusion at 30 mg/kg; time 6 h; read-out: Plasma concentration, individual animal
Measure name: concentration at 6 h (ng/mL)
Express it in ng/mL; write the number only.

The value of concentration at 6 h measured for the compound O=C(O)c1cc(-c2ccc(C3CCNCC3)cc2)c2ccc(-c3ccc(C(F)(F)F)cc3)cc2c1 turned out to be 1390

###

- Experiment notes: Plasma concentrations and TK parameters, 72-hour continuous intravenous infusion
- Type: in vivo, Sprague-Dawley rats
- Assay conditions: male, Sprague-Dawley, rat, plasma, iv, 10 mg/kg/day, male Sprague-Dawley rats; 72-hour intravenous infusion at 10 mg/kg/day; time 84 h; read-out: Plasma concentration, Mean
Measure name: concentration at 84 h

Form: molecule = O=C(O)c1cc(-c2ccc(C3CCNCC3)cc2)c2ccc(-c3ccc(C(F)(F)F)cc3)cc2c1 ; concentration at 84 h = 98.9 ng/mL

###

- Experiment notes: Solubility of PPTN in various aqueous and organic solvents
- Assay type: physicochemical
- Assay conditions: organic solvent or mixture, thermodynamic from solid; ethanol; pH ~2; PPTN HCl salt, room temperature; read-out: Solubility Estimate
Measure name: solubility at 24 h

Record summary for O=C(O)c1cc(-c2ccc(C3CCNCC3)cc2)c2ccc(-c3ccc(C(F)(F)F)cc3)cc2c1 : reported solubility at 24 h = 25 to 30 mg/mL

###

- Experiment notes: Plasma concentrations during 24-hour continuous intravenous infusion
- Format: in vivo, Sprague-Dawley rats
- Assay conditions: female, Sprague-Dawley, rat, plasma, iv, 100 mg/kg, female Sprague-Dawley rats; 24-hour intravenous infusion at 100 mg/kg; time 1 h; read-out: Plasma concentration, Mean
Measure name: concentration at 1 h

Lookup result for O=C(O)c1cc(-c2ccc(C3CCNCC3)cc2)c2ccc(-c3ccc(C(F)(F)F)cc3)cc2c1 ; measured concentration at 1 h: 2040 ng/mL

###

- Experiment notes: Plasma concentrations during 24-hour continuous intravenous infusion
- Type: in vivo, Sprague-Dawley rats
- Assay conditions: male, Sprague-Dawley, rat, plasma, iv, 100 mg/kg, male Sprague-Dawley rats; 24-hour intravenous infusion at 100 mg/kg; time 24 h; read-out: Plasma concentration, Mean
Measure name: concentration at 24 h (ng/mL)
Report only the number, with the unit ng/mL understood.

concentration at 24 h recorded for this compound, O=C(O)c1cc(-c2ccc(C3CCNCC3)cc2)c2ccc(-c3ccc(C(F)(F)F)cc3)cc2c1 [KB-1801] , is 8740

###

- Experiment notes: Plasma concentrations and TK parameters, 72-hour continuous intravenous infusion
- Assay type: in vivo, Sprague-Dawley rats
- Assay conditions: male, Sprague-Dawley, rat, plasma, iv, 100 mg/kg, male Sprague-Dawley rats; 72-hour intravenous infusion at 100 mg/kg; time 78 h; read-out: Plasma concentration, individual animal
Measure name: concentration at 78 h (ng/mL)
Provide the reading as a plain figure in ng/mL.

Form: molecule = O=C(O)c1cc(-c2ccc(C3CCNCC3)cc2)c2ccc(-c3ccc(C(F)(F)F)cc3)cc2c1 ; concentration at 78 h = 3220

###

- Experiment notes: Plasma concentrations and TK parameters, 72-hour continuous intravenous infusion
- Format: in vivo, Sprague-Dawley rats
- Assay conditions: male, Sprague-Dawley, rat, plasma, iv, 100 mg/kg, male Sprague-Dawley rats; 72-hour intravenous infusion at 100 mg/kg; time 24 h; read-out: Plasma concentration, Mean
Measure name: concentration at 24 h (ng/mL)
API: value field is a number in ng/mL; no unit string.

Lab note: measured concentration at 24 h of O=C(O)c1cc(-c2ccc(C3CCNCC3)cc2)c2ccc(-c3ccc(C(F)(F)F)cc3)cc2c1 [KB-1801] was 9550

###

- Experiment notes: Plasma concentrations and TK parameters, 72-hour continuous intravenous infusion
- Type: in vivo, Sprague-Dawley rats
- Assay conditions: male, Sprague-Dawley, rat, plasma, iv, 100 mg/kg, male Sprague-Dawley rats; 72-hour intravenous infusion at 100 mg/kg; time 78 h; read-out: Plasma concentration, Mean
Measure name: concentration at 78 h (ng/mL)
# unit: ng/mL | format: bare number

Reported concentration at 78 h of O=C(O)c1cc(-c2ccc(C3CCNCC3)cc2)c2ccc(-c3ccc(C(F)(F)F)cc3)cc2c1 : 2640

###

- Experiment notes: Plasma concentrations and TK parameters, 72-hour continuous intravenous infusion
- Type: in vivo, Sprague-Dawley rats
- Assay conditions: male, Sprague-Dawley, rat, plasma, iv, 100 mg/kg, male Sprague-Dawley rats; 72-hour intravenous infusion at 100 mg/kg; time 48 h; read-out: Plasma concentration, individual animal
Measure name: concentration at 48 h (ng/mL)
Value expressed in ng/mL; do not type the unit.

# molecule O=C(O)c1cc(-c2ccc(C3CCNCC3)cc2)c2ccc(-c3ccc(C(F)(F)F)cc3)cc2c1 [KB-1801] ; its concentration at 48 h = 7400

###

- Experiment notes: Plasma concentrations during 24-hour continuous intravenous infusion
- Assay type: in vivo, Sprague-Dawley rats
- Assay conditions: female, Sprague-Dawley, rat, plasma, iv, 30 mg/kg, female Sprague-Dawley rats; 24-hour intravenous infusion at 30 mg/kg; time 2 h; read-out: Plasma concentration, Mean
Measure name: concentration at 2 h (ng/mL)
Field: numeric (ng/mL). Do not append units.

Input O=C(O)c1cc(-c2ccc(C3CCNCC3)cc2)c2ccc(-c3ccc(C(F)(F)F)cc3)cc2c1 . Output concentration at 2 h: 1430

###

- Experiment notes: Plasma concentrations during 24-hour continuous intravenous infusion
- Assay type: in vivo, Sprague-Dawley rats
- Assay conditions: female, Sprague-Dawley, rat, plasma, iv, 100 mg/kg, female Sprague-Dawley rats; 24-hour intravenous infusion at 100 mg/kg; time 24 h; read-out: Plasma concentration, Mean
Measure name: concentration at 24 h (ng/mL)
Number only, in ng/mL; omit the unit.

Short answer for O=C(O)c1cc(-c2ccc(C3CCNCC3)cc2)c2ccc(-c3ccc(C(F)(F)F)cc3)cc2c1 [KB-1801] : concentration at 24 h was 8150

###

- Experiment notes: Plasma concentrations and TK parameters, 72-hour continuous intravenous infusion
- Format: in vivo, Sprague-Dawley rats
- Assay conditions: male, Sprague-Dawley, rat, plasma, iv, 30 mg/kg/day, male Sprague-Dawley rats; 72-hour intravenous infusion at 30 mg/kg/day; time 48 h; read-out: Plasma concentration, Mean
Measure name: concentration at 48 h (ng/mL)
Reply numerically in ng/mL, unit not repeated.

Reported concentration at 48 h of O=C(O)c1cc(-c2ccc(C3CCNCC3)cc2)c2ccc(-c3ccc(C(F)(F)F)cc3)cc2c1 [KB-1801] : 2500

Data provenance is patent US20220202799A1.
